target: neutral endopeptidase (NEP) (Homo sapiens); construct: purchased Enzo Life Sciences GmbH, Lörrach, Germany; experiment: Digest of CNP variants by Neutral Endopeptidase in vitro; type: in vitro ADME; conditions: recombinant human neutral endopeptidase (NEP), pH 7.4, read-out: half life norm. (converted)
Sequence (P08473 whole entry): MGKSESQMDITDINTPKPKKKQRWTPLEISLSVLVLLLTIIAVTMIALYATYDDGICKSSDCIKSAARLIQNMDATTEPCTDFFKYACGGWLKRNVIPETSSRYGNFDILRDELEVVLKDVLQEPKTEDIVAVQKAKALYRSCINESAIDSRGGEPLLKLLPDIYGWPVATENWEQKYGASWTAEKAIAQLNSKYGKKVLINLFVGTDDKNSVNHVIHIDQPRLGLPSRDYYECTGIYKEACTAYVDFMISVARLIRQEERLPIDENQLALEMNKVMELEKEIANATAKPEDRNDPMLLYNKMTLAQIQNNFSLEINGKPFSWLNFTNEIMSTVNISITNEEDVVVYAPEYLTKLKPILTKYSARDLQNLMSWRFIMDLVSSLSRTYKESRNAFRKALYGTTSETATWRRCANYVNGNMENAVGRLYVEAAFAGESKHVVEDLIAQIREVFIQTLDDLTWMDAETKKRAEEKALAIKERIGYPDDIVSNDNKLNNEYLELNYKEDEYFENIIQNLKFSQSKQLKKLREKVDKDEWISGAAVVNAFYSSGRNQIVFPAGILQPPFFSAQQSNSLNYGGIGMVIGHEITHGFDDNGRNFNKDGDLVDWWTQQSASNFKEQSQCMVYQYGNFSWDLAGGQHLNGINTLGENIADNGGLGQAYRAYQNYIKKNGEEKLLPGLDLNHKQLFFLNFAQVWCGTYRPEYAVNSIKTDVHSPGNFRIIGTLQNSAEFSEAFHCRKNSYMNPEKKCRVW
metric-name: half-life at 100 μg CNP equivalents/mL (min)
Response body: numeric value in min, unit text excluded.

Record summary for CC[C@H](C)[C@@H]1NC(=O)[C@H](CCCNC(=N)N)NC(=O)[C@H](CC(=O)O)NC(=O)[C@H](CC(C)C)NC(=O)[C@H](CCCCN)NC(=O)[C@H](CC(C)C)NC(=O)CNC(=O)[C@H](Cc2ccccc2)NC(=O)[C@@H](NC(=O)CNC(=O)[C@H](CCCCN)NC(=O)[C@H](CO)NC(=O)[C@H](CC(C)C)NC(=O)CN)CSSC[C@@H](C(=O)O)NC(=O)CNC(=O)[C@H](CC(C)C)NC(=O)CNC(=O)[C@H](CO)NC(=O)[C@H](CCSC)NC(=O)[C@H](CO)NC(=O)CNC1=O : reported half-life at 100 μg CNP equivalents/mL = 19.2
